# Read-out: UDP glucuronosyltransferase (UGT1A1), UGT1A1 (gene 54658)
# protocol_text: LTEA_HepaRG_UGT1A1: Life Technologies and Expression Analysis (LTEA) Assay for UDP glucuronosyltransferase (UGT1A1) using HepaRG (AID 2283538)
# reported_conditions: mRNA level, 48 h; actives raise or lower the signal
Calls of active or inactive are those of the source. How the source made its calls: active means hit-call score of the fitted dose curve at least 0.9, where 1 is the maximum; inactive means score below 0.9.
metric_name: AC50

compound	AC50
CCCCCCCCOC(=O)c1ccc(C(=O)OCCCCCCCC)c(C(=O)OCCCCCCCC)c1	inactive
CCC(C)c1ccc(O)cc1 (stereo unspecified)	inactive
CN(C)c1ccc(C(=O)c2ccc(N(C)C)cc2)cc1	13.2 µM (active)
CN(C)c1ccccc1	inactive
CCCSC(=O)N(CCC)CCC	inactive

// each listed compound needs a value for AC50
1. Clc1ccc(Cl)c(Cl)c1
2. c1ccc(NNc2ccccc2)cc1
3. Cc1ccc(N=C=O)cc1N=C=O
4. Cc1ccc(N)c(N)c1
5. Cc1cc(N=Nc2ccccc2C)ccc1N
6. Clc1ccc(C(c2ccc(Cl)cc2)C(Cl)(Cl)Cl)cc1

Result ::
inactive
inactive
inactive
50 µM (active)
85.9 µM (active)
2.03 µM (active)

Batch lookup, AC50 per entry.
1. CCN(CC)N=O
2. Nc1ccc(Cc2ccc(N)cc2)cc1
3. CCCCCCCCn1sccc1=O

Result ::
["inactive", "26.2 µM (active)", "inactive"]

Please give AC50 for each item listed below.
1. O=C1CCCO1
2. O=Cc1ccco1
3. CC(C)N(Cc1ccccc1)C(=O)C(C)(C)C
4. c1ccc2c(c1)-c1cccc3cccc-2c13
5. CN(C)C(=O)Nc1ccc(Cl)cc1
6. COC(=O)c1ccccc1N

Result ::
1: inactive; 2: inactive; 3: 6.96 µM (active); 4: 16.1 µM (active); 5: 30.8 µM (active); 6: inactive

List the reported AC50 of each compound below.
1. Brc1ccc(Oc2ccccc2)cc1
2. CCCCOC(=O)c1ccccc1C(=O)OCc1ccccc1
3. COc1cc(C=O)cc2c1[C@H](COC(N)=O)[C@]1(OC(C)=O)ON2C[C@H]2[C@@H]1N2C(C)=O
4. Cc1ccc([N+](=O)[O-])cc1

Result ::
inactive
inactive
24.6 µM (active)
8.26 µM (active)

====

# Read-out: Cytochrome P450 (CYP24A1), CYP24A1 (gene 1591)
# protocol_text: LTEA_HepaRG_CYP24A1: Life Technologies and Expression Analysis (LTEA) Assay for Cytochrome P450 (CYP24A1) using HepaRG (AID 2283478)
# reported_conditions: mRNA level, 48 h; actives raise or lower the signal
Activity calls are given as the source filed them. How the source made its calls: active means hit-call score of the fitted dose curve at least 0.9, where 1 is the maximum; inactive means score below 0.9.
metric_name: outcome

Reference set, count: 5
compound	assay_value
Clc1ccc(Cl)c(Cl)c1	inactive
CCCCC(CC)COC(=O)c1ccc(C(=O)OCC(CC)CCCC)c(C(=O)OCC(CC)CCCC)c1 (stereo not drawn)	inactive
CN(C)C(=O)Nc1ccc(Cl)cc1	inactive
c1ccc(N=Nc2ccccc2)cc1	inactive
Nc1ccc(Oc2ccc(N)cc2)cc1	inactive

Take each entry in turn and give its outcome.
1. C1=Cc2cccc3cccc1c23
2. Cc1cccc(N)c1N
3. CC(C)(O)c1cnn2c(-c3ccc(F)c(-c4c(F)cccc4C#N)c3)cnc2n1
4. c1ccc(NNc2ccccc2)cc1
5. ClC1=C(Cl)[C@]2(Cl)[C@H]3[C@H]([C@@H]4C=C[C@H]3C4)[C@@]1(Cl)C2(Cl)Cl
6. CCOc1cccc(C2(N3CCN(c4ccccc4)CC3)CCC(C)CC2)c1 (stereo not drawn)
7. CCCCOC(=O)c1ccccc1C(=O)OCc1ccccc1
8. O=P(OCCCl)(OCCCl)OCCCl

Result ::
["inactive", "inactive", "inactive", "inactive", "inactive", "inactive", "inactive", "inactive"]

====

# Read-out: C-C motif chemokine 2 (Homo sapiens)
# protocol_text: BSK_KF3CT_MCP1: BioMAP Diversity Plus: KF3CT Assay for Monocyte Chemoattractant Protein 1 (MCP1/CCL2) Biomarker Activity (AID 2283073)
# reported_conditions: primary human keratinocytes with fibroblasts; actives raise or lower the signal
The source made the active and inactive calls. The calls were made as follows: active = hit-call score of the fitted dose curve at least 0.9, where 1 is the maximum; inactive = score below 0.9.
// allowed return values: active, inactive

# example entries with known answers
test_smiles	class
CN(C)[C@@H]1C(=O)C(C(N)=O)=C(O)[C@@]2(O)C(=O)C3=C(O)c4c(O)cccc4[C@@](C)(O)[C@H]3C[C@@H]12	inactive
ClC1=C(Cl)[C@]2(Cl)[C@H]3[C@H]([C@@H]4C=C[C@H]3C4)[C@@]1(Cl)C2(Cl)Cl	active

Query :: State the result this test recorded for CC(C)(OOC(C)(C)c1ccccc1)c1ccccc1 .
Result :: inactive

Query :: What did this assay record as the result for Cc1cc(N=Nc2ccccc2C)ccc1N ?
Result :: inactive

Query :: I'd appreciate the recorded outcome for CS(=O)(=O)NC(=O)c1cc(Oc2ccc(C(F)(F)F)cc2Cl)ccc1[N+](=O)[O-] from this test.
Result :: inactive

====

# System: frog Estrogen Receptor (ESR1), gene 398734
# protocol_text: ATG_frER1_XSP1: Attagene TRANS-FACTORIAL Multi-Species (XSP1) HepG2 Assay for frog Estrogen Receptor (ESR1) (AID 2283777)
Results filed as inconclusive are left out. Active and inactive are the calls of the source. How the source made its calls: active means hit-call score of the fitted dose curve at least 0.9, where 1 is the maximum; inconclusive means response in the unintended direction; inactive means score below 0.9.
Outcome (select one): active, inactive

These recorded examples may help you get a feel for the data.
test_smiles	tested_system	class
CCCCCOC(=O)c1ccccc1C(=O)OCCCCC	frog Estrogen Receptor (ESR1), gene 398734	inactive
Clc1ccc(C(c2ccc(Cl)cc2)C(Cl)(Cl)Cl)cc1	frog Estrogen Receptor (ESR1), gene 398734	active
CCCCOC(=O)c1ccccc1C(=O)OCc1ccccc1	frog Estrogen Receptor (ESR1), gene 398734	active
CCC[CH2][Sn]([Cl])([CH2]CCC)[CH2]CCC	frog Estrogen Receptor (ESR1), gene 398734	inactive

Query compound follows.
Query :: Look up the recorded call for C[C@]12C=CC3=C4CCC(=O)C=C4CC[C@H]3[C@@H]1CC[C@@H]2O in this test.
Result :: inactive

====

# Read-out: catalase (CAT), CAT (gene 847)
# protocol_text: LTEA_HepaRG_CAT: Life Technologies and Expression Analysis (LTEA) Assay for catalase (CAT) using HepaRG (AID 2283452);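 on AC50: TaqMan qRT-PCR signal normalized to ACTB GAPDH and POLR2A housekeeping genes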
# reported_conditions: mRNA level, 48 h; actives raise or lower the signal
Activity calls are given as the source filed them. Rule for the calls: active = hit-call score of the fitted dose curve at least 0.9, where 1 is the maximum; inactive = score below 0.9.
metric_name: AC50

Some molecules with known AC50 results, for comparison:
molecule	AC50
O=[N+]([O-])C(Br)(CO)CO	inactive
COC(=O)Nc1nc2ccccc2[nH]1	inactive
CC(C)(C)OOC(C)(C)CCC(C)(C)OOC(C)(C)C	inactive
Cn1cc(-c2ccccc2)c(=O)c(-c2cccc(C(F)(F)F)c2)c1	inactive
Oc1ccccc1Cl	inactive
CCCCCCCCCCCCCN1CC(C)OC(C)C1 (centres undefined)	inactive

List the reported AC50 of each molecule below.
1. c1ccc(NNc2ccccc2)cc1
2. CCN(CC)N=O
3. c1ccc2c(c1)oc1ccccc12
4. CC(C)(O)c1cnn2c(-c3ccc(F)c(-c4c(F)cccc4C#N)c3)cnc2n1
5. CCC[CH2][Sn]([Cl])([CH2]CCC)[CH2]CCC

Result ::
inactive
inactive
inactive
inactive
1.66 µM (active)

====

# protocol_text: CCTE_Deisenroth_5AR_NBTE_donor: CCTE's 5alpha-reductase NanoBRET Target Engagement Assay […], Deisenroth Lab (AID 2284319)
# reported_conditions: actives raise or lower the signal
Calls of active or inactive are those of the source. The calls were made as follows: active = hit-call score of the fitted dose curve at least 0.9, where 1 is the maximum; inactive = score below 0.9.
Please answer using one outcome listed in active, inactive

test_smiles	class
CC(C)(O)c1cnn2c(-c3ccc(F)c(-c4c(F)cccc4C#N)c3)cnc2n1	inactive
Cc1cc(N=Nc2ccccc2C)ccc1N	active
CCC[CH2][Sn]([Cl])([CH2]CCC)[CH2]CCC	active

Query :: What classification did Cc1ccc(N)c(N)c1 end up with in this test?
Result :: inactive

Query :: Write down the call the test reported for this compound. Item: CCCCCCCCn1sccc1=O
Result :: active

====

# Read-out: CYP2C8 (gene 1558)
# protocol_text: LTEA_HepaRG_CYP2C8: Life Technologies and Expression Analysis (LTEA) Assay for CYP2C8 using HepaRG (AID 2283483)
# reported_conditions: mRNA level, 48 h; actives raise or lower the signal
Active and inactive are the calls of the source. How the source made its calls: active means hit-call score of the fitted dose curve at least 0.9, where 1 is the maximum; inactive means score below 0.9.
Use one of these outcomes when replying: Yes = active, No = inactive

compound	class
O=C(Nc1ccccc1)c1ccccc1I	No
CCCCCCCCn1sccc1=O	Yes
CS(=O)(=O)NC(=O)c1cc(Oc2ccc(C(F)(F)F)cc2Cl)ccc1[N+](=O)[O-]	Yes

Now for a further compound.
Query :: Give the logged outcome of this assay for the following compound: O=C1CCCO1
Result :: No

====

# protocol_text: APR_HepG2_MitoMass_24hr: Apredica 24-hour HepG2 Assay for Mitochondrial Mass (AID 2282912)
# reported_conditions: high-content imaging, actives raise or lower the signal
Calls of active or inactive are those of the source. The calls were made as follows: active = hit-call score of the fitted dose curve at least 0.9, where 1 is the maximum; inactive = score below 0.9.
metric_name: AC50

compound	AC50
ClCCOCCCl	inactive
Nc1ccc([N+](=O)[O-])cc1	inactive
CCCCCCCCCCCCCN1CC(C)OC(C)C1 (stereo unspecified)	189 µM (active)
CN(C)c1ccc(C(=O)c2ccc(N(C)C)cc2)cc1	inactive
c1ccc(C2CO2)cc1 (stereo unspecified)	inactive
CC(C)(C)OOC(=O)c1ccccc1	34.1 µM (active)
Brc1ccc(Oc2ccccc2)cc1	inactive
CCCCCOC(=O)c1ccccc1C(=O)OCCCCC	inactive
CCC[CH2][Sn]([Cl])([CH2]CCC)[CH2]CCC	100 µM (active)
Cc1cc(N=Nc2ccccc2C)ccc1N	121 µM (active)

Hi, could you look up AC50 for each item in my list?
1. OCCCl
2. CCNS(=O)(=O)C(F)(F)C(F)(F)C(F)(F)C(F)(F)C(F)(F)C(F)(F)C(F)(F)C(F)(F)F
3. CC(C)(C)C(O)(CCc1ccc(Cl)cc1)Cn1cncn1 (stereo unspecified)
4. CCCCCCCCOC(=O)c1ccc(C(=O)OCCCCCCCC)c(C(=O)OCCCCCCCC)c1

Result ::
1. inactive
2. inactive
3. 124 µM (active)
4. inactive

Field: AC50. Fill in for each record below.
1. OCCCBr
2. Cc1ccc([N+](=O)[O-])cc1

Result ::
inactive
inactive
